Property: protein stability index; scope: individual variants
B1: PRAME (parent)
chain: KKLKIFAMPMQDIKMILKMVQLDS

- Variants of: B1
- assay_text: protein stability index of a GFP-peptide fusion (GPS, HEK-293T) (PSI 1-6); higher = more stable;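 also: lentivirally expressed fusions sorted by FACS into six bins by GFP to DsRed ratio, PSI derived from sequencing read proportions per bin multiplied by bin number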
- reported_conditions: c terminus: a fixed tail appended
Field format: numeric only.

{"columns": ["mutant_code", "observable", "value_reported"],
 "data": [
  ["A7N", "protein stability index", 2.46]
]}

Prompt line: Return protein stability index (reported value) for this variant: `M19Q`
Response line: 2.89

Prompt line: Return protein stability index (reported value) for this variant: `K1T`
Response line: 3.61

Prompt line: Return protein stability index (reported value) for this variant: `K1F`
Response line: 4.97

Prompt line: Return protein stability index (reported value) for this variant: `A7Y`
Response line: 4.92

Prompt line: Return protein stability index (reported value) for this variant: `L3W`
Response line: 2.03

Prompt line: Return protein stability index (reported value) for this variant: `S24K`
Response line: 2.42

Prompt line: Return protein stability index (reported value) for this variant: `I13R`
Response line: 2.96

Prompt line: Return protein stability index (reported value) for this variant: `M19C`
Response line: 3.53

Prompt line: Return protein stability index (reported value) for this variant: `S24D`
Response line: 4.26

Prompt line: Return protein stability index (reported value) for this variant: `K1M`
Response line: 2.68

The reported measurements were obtained from the supplement of paper PMC10567573.
